Assay: Molar extinction coefficient of ultraviolet absorbent in 20 mg/L toluene solution
Type: physicochemical
Details: 390 nm
Protocol: (manufactured by JASCO Corporation) Measured Concentration: 20 mg/L Solvent: toluene
# Molar extinction coefficient 390 nm listing for each entry below
readoutLabel: Molar extinction coefficient 390 nm

compound=CC(C)(C)CC(C)(C)c1cc(Cc2cc(C(C)(C)CC(C)(C)C)cc(-n3nc4ccccc4n3)c2O)c(O)c(-n2nc3ccccc3n2)c1 readoutlabel="Molar extinction coefficient 390 nm" valuemeasured="1,400 L/mol · cm"
compound=CC(C)(C)CC(C)(C)c1ccc(O)c(-n2nc3ccccc3n2)c1 readoutlabel="Molar extinction coefficient 390 nm" valuemeasured="320 L/mol/cm"
compound=CCC(C)(C)c1cc(-n2nc3ccccc3n2)c(O)c(C(C)(C)CC)c1 readoutlabel="Molar extinction coefficient 390 nm" valuemeasured="1,200 L/mol · cm"
compound="CCCCC(CC)C(=O)OCCOc1ccc(-c2nc(-c3ccccc3)nc(-c3ccccc3)n2)c(O)c1 (stereo not shown)" readoutlabel="Molar extinction coefficient 390 nm" valuemeasured="<50 L/mol/cm"

---

# Molar extinction coefficient 420 nm listing for each entry below
assay: Molar extinction coefficient of ultraviolet absorbent in 20 mg/L toluene solution; format: physicochemical; conditions: 420 nm
readoutLabel: Molar extinction coefficient 420 nm

compound=CC(C)(C)CC(C)(C)c1cc(Cc2cc(C(C)(C)CC(C)(C)C)cc(-n3nc4ccccc4n3)c2O)c(O)c(-n2nc3ccccc3n2)c1 valuemeasured="<50 L/mol/cm"
compound=CCC(C)(C)c1cc(-n2nc3ccccc3n2)c(O)c(C(C)(C)CC)c1 valuemeasured="<50 L/mol/cm"
compound=CC(C)(C)CC(C)(C)c1ccc(O)c(-n2nc3ccccc3n2)c1 valuemeasured="<50 L/mol/cm"
compound="CCCCC(CC)C(=O)OCCOc1ccc(-c2nc(-c3ccccc3)nc(-c3ccccc3)n2)c(O)c1 (stereo not shown)" valuemeasured="<30 L/mol/cm"

---

assay: Molar extinction coefficient of ultraviolet absorbent in 20 mg/L toluene solution; format: physicochemical; conditions: 370 nm
readoutLabel: Molar extinction coefficient 370 nm

compound=CC(C)(C)CC(C)(C)c1cc(Cc2cc(C(C)(C)CC(C)(C)C)cc(-n3nc4ccccc4n3)c2O)c(O)c(-n2nc3ccccc3n2)c1 readoutlabel="Molar extinction coefficient 370 nm" valuemeasured="19,800 L/mol · cm"
compound=CCC(C)(C)c1cc(-n2nc3ccccc3n2)c(O)c(C(C)(C)CC)c1 readoutlabel="Molar extinction coefficient 370 nm" valuemeasured="9,700 L/mol · cm"
compound="CCCCC(CC)C(=O)OCCOc1ccc(-c2nc(-c3ccccc3)nc(-c3ccccc3)n2)c(O)c1 (stereo not shown)" readoutlabel="Molar extinction coefficient 370 nm" valuemeasured="3,000 L/mol · cm"
compound=CC(C)(C)CC(C)(C)c1ccc(O)c(-n2nc3ccccc3n2)c1 readoutlabel="Molar extinction coefficient 370 nm" valuemeasured="7,700 L/mol · cm"

---

assay: Molar extinction coefficient of ultraviolet absorbent in 20 mg/L toluene solution; format: physicochemical; conditions: 380 nm
# Molar extinction coefficient 380 nm listing for each entry below
readoutLabel: Molar extinction coefficient 380 nm

compound=CC(C)(C)CC(C)(C)c1ccc(O)c(-n2nc3ccccc3n2)c1 readoutlabel="Molar extinction coefficient 380 nm" valuemeasured="2,200 L/mol · cm"
compound=CCC(C)(C)c1cc(-n2nc3ccccc3n2)c(O)c(C(C)(C)CC)c1 readoutlabel="Molar extinction coefficient 380 nm" valuemeasured="4,800 L/mol · cm"
compound=CC(C)(C)CC(C)(C)c1cc(Cc2cc(C(C)(C)CC(C)(C)C)cc(-n3nc4ccccc4n3)c2O)c(O)c(-n2nc3ccccc3n2)c1 readoutlabel="Molar extinction coefficient 380 nm" valuemeasured="9,000 L/mol · cm"
compound="CCCCC(CC)C(=O)OCCOc1ccc(-c2nc(-c3ccccc3)nc(-c3ccccc3)n2)c(O)c1 (stereo not shown)" readoutlabel="Molar extinction coefficient 380 nm" valuemeasured="160 L/mol/cm"

---

test: Molar extinction coefficient of ultraviolet absorbent in 20 mg/L toluene solution; type: physicochemical; details: 360 nm
readoutLabel: Molar extinction coefficient 360 nm

compound=CC(C)(C)CC(C)(C)c1cc(Cc2cc(C(C)(C)CC(C)(C)C)cc(-n3nc4ccccc4n3)c2O)c(O)c(-n2nc3ccccc3n2)c1 valuemeasured="27,300 L/mol · cm"
compound="CCCCC(CC)C(=O)OCCOc1ccc(-c2nc(-c3ccccc3)nc(-c3ccccc3)n2)c(O)c1 (stereo not shown)" valuemeasured="10000 L/mol/cm"
compound=CC(C)(C)CC(C)(C)c1ccc(O)c(-n2nc3ccccc3n2)c1 valuemeasured="13,100 L/mol · cm"
compound=CCC(C)(C)c1cc(-n2nc3ccccc3n2)c(O)c(C(C)(C)CC)c1 valuemeasured="13,900 L/mol · cm"

---

assay: Molar extinction coefficient of ultraviolet absorbent in 20 mg/L toluene solution; type: physicochemical; conditions: 400 nm
readoutLabel: Molar extinction coefficient 400 nm

compound="CCCCC(CC)C(=O)OCCOc1ccc(-c2nc(-c3ccccc3)nc(-c3ccccc3)n2)c(O)c1 (stereo not shown)" valuemeasured="<30 L/mol/cm"
compound=CC(C)(C)CC(C)(C)c1ccc(O)c(-n2nc3ccccc3n2)c1 valuemeasured="<50 L/mol/cm"
compound=CC(C)(C)CC(C)(C)c1cc(Cc2cc(C(C)(C)CC(C)(C)C)cc(-n3nc4ccccc4n3)c2O)c(O)c(-n2nc3ccccc3n2)c1 valuemeasured="<50 L/mol/cm"
compound=CCC(C)(C)c1cc(-n2nc3ccccc3n2)c(O)c(C(C)(C)CC)c1 valuemeasured="210 L/mol/cm"
